Ref: PubChem BioAssay AID1159580

assay: chemical genetic growth profiling, strain panel (AID 1159580);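 note: tested at 20 µM; growth read once vehicle control cultures reached saturation at 30 °C; 1 = growth at the plate median or of vehicle wells; lower values mean less growth of the strain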; details: S. cerevisiae deletion strains, growth OD, locus YDR162C, strain NBP2
Out of some 5,500 compounds screened, about 2,000 (36%) were called active. About 18% were inconclusive and are not listed. Cut-off read from the data, not from the text of the source: active = normalized growth mostly below about 0.91 (no sharp cut-off); inconclusive = no clear call, values can overlap the other calls; inactive = mostly above about 0.92. The list shows a part of the results.
// one of active, inactive, no free text

See these solved cases before continuing.
[
  {
    "compound": "CC1(C)C2(Cl)C(Cl)C(Cl)C(Cl)(C(Cl)Cl)C1(Cl)C2Cl (centres undefined)",
    "category.label": "inactive"
  },
  {
    "compound": "CO[C@@]1(NC(=O)CSCC#N)C(=O)N2C(C(=O)O)=C(CSc3nnnn3C)CSC21 (some centres undefined)",
    "category.label": "inactive"
  },
  {
    "compound": "CC1(C)C2CC(=O)[C@]3(C)C(CC[C@@]4(C)[C@H](c5ccoc5)OC(=O)[C@H]5O[C@]543)[C@@]2(C)C=C[C@@H]1O (some centres undefined)",
    "category.label": "inactive"
  },
  {
    "compound": "Cn1c(=O)c2[nH]cnc2n(C)c1=O",
    "category.label": "inactive"
  },
  {
    "compound": "CC[C@H](C)C(=O)O[C@H]1CCC=C2C=C[C@H](C)C(CCC3C[C@@H](O)CC(=O)O3)[C@H]21 (some centres undefined)",
    "category.label": "inactive"
  },
  {
    "compound": "CCC(C)(C)C(=O)O[C@H]1C[C@@H](C)C=C2C=C[C@H](C)[C@H](CC[C@@H]3C[C@@H](O)CC(=O)O3)[C@H]21",
    "category.label": "inactive"
  },
  {
    "compound": "O=C(Cn1ccnc1[N+](=O)[O-])NCCO",
    "category.label": "inactive"
  },
  {
    "compound": "C[N+]1(C)C2CC(OC(=O)[C@@H](CO)c3ccccc3)CC1C1OC12 (some centres undefined)",
    "category.label": "inactive"
  }
]

With those in mind, consider the next compound.
### Prompt Please state the recorded outcome for this compound: CC(C)COCC(CN(Cc1ccccc1)c1ccccc1)N1CCCC1 (centres undefined)
### Response active

====

Reported normalized growth values for a set of compounds
experiment: chemical genetic growth profiling, strain panel (AID 1159580); conditions: S. cerevisiae deletion strains, growth OD, locus YDL017W, strain CDC7, active compounds read low
About 2,000 (36%) of roughly 5,500 compounds were called active. Another 18% or so got no clear call; they are omitted. This is one part of the list.
API doc: respond with a numeric literal and nothing else, no unit.

// below: answered compounds
[
  {
    "smiles.string": "Cc1ccc(NS(=O)(=O)c2ccc(-c3csc(C)n3)s2)c(C)c1",
    "normalized growth": 0.984
  },
  {
    "smiles.string": "FC(F)(F)c1ccnc(N2CCCN(C(=S)Nc3ccc(Cl)cc3Cl)CC2)n1",
    "normalized growth": 0.966
  },
  {
    "smiles.string": "Cc1nc(-c2ccc(S(=O)(=O)Nc3ccc(Br)cc3Cl)s2)cs1",
    "normalized growth": 0.942
  },
  {
    "smiles.string": "CC(=O)ON=C1c2cc([N+](=O)[O-])ccc2-c2ccc([N+](=O)[O-])cc21",
    "normalized growth": 0.954
  }
]

Moving on to another compound below.
### Prompt Assign normalized growth to the following record: COC(=O)c1sccc1-c1ccc(/C=C/[N+](=O)[O-])o1
### Response 0.974

====

experiment: chemical genetic growth profiling, strain panel (AID 1159580);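 note: tested at 20 µM; growth read once vehicle control cultures reached saturation at 30 °C; 1 = growth at the plate median or of vehicle wells; lower values mean less growth of the strain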; details: S. cerevisiae deletion strains, growth OD, locus YNL006W, strain LST8
Hit rate of the full screen: of about 5,500 compounds, about 2,000 (36%) were called active. Not shown: some 18% with an inconclusive outcome. Rule as the data show it: active = normalized growth mostly below about 0.91 (no sharp cut-off); inconclusive = no clear call, values can overlap the other calls; inactive = mostly above about 0.92. The list shows a part of the results.
Response enum: true (active), false (inactive)

[
  {
    "smiles.string": "Cc1ccc(NNC(=O)c2c(C)noc2C)cc1Cl",
    "category.label": "false"
  },
  {
    "smiles.string": "OC(=Cc1nc2ccccc2nc1C=C(O)c1ccc(Cl)cc1)c1ccc(Cl)cc1",
    "category.label": "false"
  },
  {
    "smiles.string": "Cc1onc(-c2c(F)cccc2Cl)c1C(=O)NNc1cc(Cl)cc(Cl)c1",
    "category.label": "false"
  }
]

### Prompt Check the results log: what was the call for O=C(Nc1ccc(Cl)cc1)OCCSc1nc2ccccc2s1 ?
### Response false

### Prompt Query: recorded result category for CC(C)(CCC(C)(C)N1C(=O)c2cccc3cccc(c23)C1=O)N1C(=O)c2cccc3cccc(c23)C1=O in this test
### Response true

### Prompt # fetch the recorded call for Cc1ccc(NS(=O)(=O)c2ccc(-c3csc(C)n3)s2)c(C)c1 here
### Response false

### Prompt Would you mind telling me which call this test gave ClC1=C(C=Nc2ccc(Cl)cc2)CSc2ccc(Cl)cc21 ?
### Response false

### Prompt # fetch the recorded call for Cc1onc(-c2c(Cl)cccc2Cl)c1C(=O)NC(C)(C)CC(C)(C)C here
### Response false

### Prompt Call for entry Cc1c(-c2ccnn2C(=O)c2ccco2)cnn1-c1ccccc1 :
### Response false

====

test: chemical genetic growth profiling, strain panel (AID 1159580);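 note: tested at 20 µM; growth read once vehicle control cultures reached saturation at 30 °C; 1 = growth at the plate median or of vehicle wells; lower values mean less growth of the strain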; settings: S. cerevisiae deletion strains, growth OD, locus YKR091W, strain srl3, active compounds read low
In all, about 5,500 compounds went through this assay and about 2,000 (36%) were called active. About 18% were inconclusive and are not listed. The list shows a part of the results.
experimental.endpoint: normalized growth

[
  {
    "compound": "CC(=O)N[C@@H](CS)C(=O)O",
    "normalized growth": "1.01 (inactive)"
  },
  {
    "compound": "C=C1C(=O)O[C@@H]2C[C@@]3(C)CCC[C@H](C)C3=C[C@H]12",
    "normalized growth": "0.913 (active)"
  },
  {
    "compound": "C=CC(N)CCC(=O)O (stereo not given)",
    "normalized growth": "0.985 (inactive)"
  }
]

### Prompt Tell me normalized growth reported for CCC(C)C(=O)O[C@H]1C[C@H](O)C=C2C=C[C@H](C)[C@H](CC[C@@H](O)C[C@@H](O)CC(=O)O)C21 (stereo not given in full)
### Response 1 (inactive)

### Prompt Give the reported normalized growth for this compound. CCOC(=O)Nc1nc2ccccc2[nH]1
### Response 0.987 (inactive)

### Prompt Hello, please tell me recorded normalized growth for this one: O=C(O)CN1C(=O)c2cccc3cccc(c23)C1=O
### Response 0.986 (inactive)

### Prompt Determine its reported normalized growth: CO/N=C(\C(=O)N[C@@H]1C(=O)N2C(C(=O)O)=C(COC(C)=O)CS[C@H]12)c1csc(N)n1
### Response 0.962 (inactive)

### Prompt State, in one line, measured normalized growth of CC(C)NNC(=O)c1ccncc1
### Response 1.01 (inactive)

### Prompt Tell me its normalized growth given CC[C@H](C)C(=O)O[C@H]1CCC=C2C=C[C@H](C)C(CCC3C[C@@H](O)CC(=O)O3)[C@H]21 (stereo not given in full) as the entry.
### Response 1 (inactive)

### Prompt Note down normalized growth recorded for CC[C@H](C)C(=O)O[C@H]1C[C@@H](C)C=C2C=C[C@H](C)[C@H](CC[C@@H]3C[C@@H](O)CC(=O)O3)[C@H]21
### Response 1 (inactive)

====

Entries and their measured normalized growth follow.
experiment: chemical genetic growth profiling, strain panel (AID 1159580);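 note: tested at 20 µM; growth read once vehicle control cultures reached saturation at 30 °C; 1 = growth at the plate median or of vehicle wells; lower values mean less growth of the strain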; conditions: S. cerevisiae deletion strains, growth OD, locus YEL003W, strain gim4, active compounds read low
The whole screen tested about 5,500 compounds, of which about 2,000 (36%) were called active. About 18% were inconclusive and are not listed. The list shows a part of the results.
Form: value (number only, do not type unit).

These recorded examples may help you get a feel for the data.
[
  {
    "compound": "CC(C)C(C)/C=C/C(C)C1CCC2C3=CC=C4CC(O)CCC4(C)C3CCC21C (stereo not given)",
    "experimental.endpoint": "normalized growth",
    "value.reported": 0.986
  },
  {
    "compound": "CCCCN1CCCCC1C(=O)Nc1c(C)cccc1C (stereo not given)",
    "experimental.endpoint": "normalized growth",
    "value.reported": 0.983
  },
  {
    "compound": "COC(=O)[C@@H]1OC(=O)[C@H]2O[C@@]23[C@@]1(C)CCC1[C@@]2(C)CCC(=O)C(C)(C)C2C[C@@H](OC(C)=O)[C@]13C (stereo not given in full)",
    "experimental.endpoint": "normalized growth",
    "value.reported": 0.986
  }
]

### Prompt Return the recorded normalized growth value; entry: CO[C@@]1(NC(=O)CSCC#N)C(=O)N2C(C(=O)O)=C(CSc3nnnn3C)CSC21 (stereo not given in full)
### Response 1

### Prompt Supply recorded normalized growth for CCOC(=O)c1ccc(O)cc1 here.
### Response 1.02
